For each entry below, report its IC50 value.
# system-tested: recombinant human HDAC1 (Homo sapiens (Human), UniProt Q13547)
# Sequence (Q13547 whole entry): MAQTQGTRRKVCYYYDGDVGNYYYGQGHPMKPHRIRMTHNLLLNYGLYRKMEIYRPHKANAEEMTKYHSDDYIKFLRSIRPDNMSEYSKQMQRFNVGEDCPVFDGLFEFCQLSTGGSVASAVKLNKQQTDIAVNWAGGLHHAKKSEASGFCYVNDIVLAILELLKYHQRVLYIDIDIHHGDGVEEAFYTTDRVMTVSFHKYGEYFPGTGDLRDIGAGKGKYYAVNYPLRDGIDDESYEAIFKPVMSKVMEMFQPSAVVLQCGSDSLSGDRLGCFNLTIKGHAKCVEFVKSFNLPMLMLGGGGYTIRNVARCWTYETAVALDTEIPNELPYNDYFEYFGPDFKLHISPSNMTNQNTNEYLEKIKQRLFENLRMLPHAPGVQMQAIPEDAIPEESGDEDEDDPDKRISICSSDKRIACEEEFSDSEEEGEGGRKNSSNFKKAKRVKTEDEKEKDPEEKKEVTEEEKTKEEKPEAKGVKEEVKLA
# measurement-notes: Enzymatic screening, HDAC1 inhibition (fluorogenic FdL_G substrate)

// known answers, use as guide
molecule	IC50
C[C@@H]1CN(c2ccc(-c3nnn(Cc4ccc(-c5nnc(C(F)F)o5)cc4)n3)cn2)CCN1 [compound 159]	> 200 µM
FC(F)c1nnc(-c2ccc(Cn3nnc(-c4cccc(-c5ccccc5)c4)n3)cc2)o1 [compound 246]	> 200 µM
O=C1Nc2cc(-c3nnn(Cc4ccc(-c5nnc(C(F)F)o5)cc4)n3)ccc2NC12CCCCC2 [compound 209]	> 200 µM

For each of the molecules below, note its IC50.
1. O=C(c1cccc(-c2nnn(Cc3ccc(-c4nnc(C(F)F)o4)cc3)n2)c1)N1CCOCC1 [compound 120]
2. CNc1ncc2cc(-c3cn(Cc4ccc(-c5nnc(C(F)F)o5)c(F)c4F)nn3)ccc2n1 [compound 389]

Data returned:
1: > 200 µM; 2: 1000 µM

For each of the molecules below, note its IC50.
1. Nc1nc2cc(-c3cn(Cc4ccc(-c5nnc(C(F)F)o5)cc4)nn3)ccc2s1 [compound 132]
2. O=C1NCc2cc(-c3nnn(Cc4ccc(-c5nnc(C(F)F)o5)cc4)n3)ccc21 [compound 167]
3. CN(Cc1ccncc1)Cc1ccc(-c2nnn(Cc3ccc(-c4nnc(C(F)F)o4)cc3)n2)cc1 [compound 215]
4. NCc1ccc(-c2nc(Cc3c(F)cc(-c4nnc(C(F)F)o4)cc3F)no2)cc1 [compound 100]

Data returned:
1. > 200 µM
2. > 200 µM
3. > 200 µM
4. > 200 µM

For each of the molecules below, note its IC50.
1. CNc1ccc2cc(-c3nnn(Cc4ccc(-c5nnc(C(F)F)o5)c(F)c4)n3)ccc2n1 [compound 403]
2. O=C1NCc2ccc(-c3nnn(Cc4ccc(-c5nnc(C(F)F)o5)cc4F)n3)cc21 [compound 40]
3. CCNc1ncc2cc(-c3cn(Cc4ccc(-c5nnc(C(F)F)o5)c(F)c4)nn3)ccc2n1 [compound 395]
4. CN(Cc1ccncc1)Cc1ccc(-c2nc(Cc3c(F)cc(-c4nnc(C(F)F)o4)cc3F)no2)cc1 [compound 254]
5. CC(=O)Nc1cccc(-c2cn(Cc3ccc(-c4nnc(C(F)F)o4)cc3)nn2)c1 [compound 139]
6. Fc1cc(-c2nnc(C(F)F)o2)c(F)cc1Cn1nnc(-c2cccc(-c3nc4c([nH]3)CCNC4)c2)n1 [compound 367]
7. Nc1ccc(-c2nnn(Cc3ncc(-c4nnc(C(F)F)o4)cn3)n2)cn1 [compound 77]
8. CCCCC(c1ccc(-c2nnc(C(F)F)o2)cc1)n1cc(-c2cccc(NC(=O)N3CCOCC3)c2)nn1 (centres unmarked) [compound 244]

Data returned:
["1000 µM", "> 200 µM", "1000 µM", "> 200 µM", "> 200 µM", "168 µM", "> 200 µM", "> 200 µM"]

For each of the molecules below, note its IC50.
1. O=C1Nc2cc(-c3cn(Cc4ccc(-c5nnc(C(F)F)o5)cc4)nn3)ccc2NC12CCNCC2 [compound 277]
2. CC1(C)NC(=O)c2cc(-c3cn(Cc4ccc(-c5nnc(C(F)F)o5)cc4)nn3)ccc21 [compound 245]
3. Nc1ccc(-c2cn(Cc3c(F)cc(-c4nnc(C(F)F)o4)cc3F)nn2)cc1 [compound 296]

Data returned:
1: 166 µM; 2: > 200 µM; 3: > 200 µM

###

For each entry below, report its IC50 value.
# system-tested: recombinant human HDAC6 (Homo sapiens (Human), UniProt Q9UBN7)
# Sequence (Q9UBN7 whole entry): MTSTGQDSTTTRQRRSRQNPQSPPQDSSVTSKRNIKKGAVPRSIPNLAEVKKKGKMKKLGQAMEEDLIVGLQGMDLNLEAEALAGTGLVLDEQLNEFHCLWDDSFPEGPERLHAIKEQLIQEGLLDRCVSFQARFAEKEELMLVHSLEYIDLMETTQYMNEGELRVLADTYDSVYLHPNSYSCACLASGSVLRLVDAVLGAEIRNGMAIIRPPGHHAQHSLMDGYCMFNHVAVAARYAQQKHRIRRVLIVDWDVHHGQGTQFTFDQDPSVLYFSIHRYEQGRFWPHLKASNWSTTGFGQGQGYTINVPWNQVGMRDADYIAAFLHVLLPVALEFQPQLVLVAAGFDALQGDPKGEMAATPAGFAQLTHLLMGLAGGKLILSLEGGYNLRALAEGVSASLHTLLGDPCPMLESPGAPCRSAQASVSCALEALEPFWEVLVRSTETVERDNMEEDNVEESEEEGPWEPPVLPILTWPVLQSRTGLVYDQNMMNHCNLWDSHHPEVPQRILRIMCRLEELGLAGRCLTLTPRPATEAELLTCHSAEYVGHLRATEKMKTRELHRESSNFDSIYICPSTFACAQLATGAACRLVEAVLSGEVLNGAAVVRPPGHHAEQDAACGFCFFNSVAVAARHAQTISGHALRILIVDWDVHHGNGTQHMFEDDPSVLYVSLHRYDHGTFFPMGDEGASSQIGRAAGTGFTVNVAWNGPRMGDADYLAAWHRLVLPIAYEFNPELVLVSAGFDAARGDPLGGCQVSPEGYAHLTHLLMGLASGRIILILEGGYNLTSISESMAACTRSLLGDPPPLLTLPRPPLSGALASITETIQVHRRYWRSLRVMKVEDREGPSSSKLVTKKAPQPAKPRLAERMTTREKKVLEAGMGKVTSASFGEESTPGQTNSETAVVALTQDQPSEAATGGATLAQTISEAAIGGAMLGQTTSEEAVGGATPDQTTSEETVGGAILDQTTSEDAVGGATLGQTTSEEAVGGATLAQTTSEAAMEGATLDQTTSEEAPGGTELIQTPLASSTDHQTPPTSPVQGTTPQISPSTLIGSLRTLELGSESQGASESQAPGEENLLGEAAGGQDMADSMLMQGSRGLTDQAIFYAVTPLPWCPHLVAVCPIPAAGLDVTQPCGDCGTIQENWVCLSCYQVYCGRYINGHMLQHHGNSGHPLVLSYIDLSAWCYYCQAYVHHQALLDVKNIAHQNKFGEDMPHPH
# measurement-notes: Enzymatic screening, HDAC6 inhibition (fluorogenic FdL_G substrate)
# Experimental: For each test compound, 100× concentrated DMSO solutions at 8 doses were prepared and then diluted in assay buffer (25 mM Tris-HCl, pH 8, 130 mM NaCl, 0.05% Tween-20, 10% Glycerol) to obtain 5× concentrated solutions in relation to the final concentrations (typical final concentration range—6.4-200000 nM or 0.18-50000 nM, final DMSO content—1%). […]
Give bare numbers, in nM.

// known answers, use as guide
compound	system-tested	unit-name	IC50
[2H]C([2H])(c1ccc(-c2nnc(C(F)F)o2)cc1)n1cc(-c2cccc(NC(=O)N3CCOCC3)c2)nn1	recombinant human HDAC6 (Homo sapiens (Human), UniProt Q9UBN7)	nM	60
Nc1ncnc2sc(-c3cn(Cc4ccc(-c5nnc(C(F)F)o5)cc4F)nn3)cc12	recombinant human HDAC6 (Homo sapiens (Human), UniProt Q9UBN7)	nM	46
O=C1Nc2ccc(-c3cn(Cc4ccc(-c5nnc(C(F)F)o5)cn4)nn3)cc2C12CCNC2 (stereo not drawn) [compound 28]	recombinant human HDAC6 (Homo sapiens (Human), UniProt Q9UBN7)	nM	13
O=C1NCc2cc(-c3nnn(Cc4ccc(-c5nnc(C(F)F)o5)cc4)n3)ccc21	recombinant human HDAC6 (Homo sapiens (Human), UniProt Q9UBN7)	nM	79
CCC[C@@H](c1ccc(-c2nnc(C(F)F)o2)cc1)n1cc(-c2ccc(N)nc2)nn1 (stereo in doubt) [compound 193]	recombinant human HDAC6 (Homo sapiens (Human), UniProt Q9UBN7)	nM	104

For each of the compounds below, note its IC50.
1. O=C(Nc1cccc(-c2cn(Cc3ccc(-c4nnc(C(F)F)o4)c(F)c3F)nn2)c1)N1CCOCC1
2. CC(=O)N1CCC(c2nnn(Cc3ccc(-c4nnc(C(F)F)o4)cc3)n2)CC1
3. Nc1ccc(-c2cn(Cc3c(F)cc(-c4nnc(C(F)F)o4)cc3F)nn2)cc1
4. CNc1ccc(-c2nnn(Cc3ccc(-c4nnc(C(F)F)o4)cc3)n2)cc1N

Data returned:
1: 101; 2: 395; 3: 34; 4: 77

For each of the compounds below, note its IC50.
1. CN(C)c1nc2cc(-c3nnn(Cc4ccc(-c5nnc(C(F)F)o5)cc4)n3)ccc2o1
2. Nc1nc2cc(-c3cn(Cc4ccc(-c5nnc(C(F)F)o5)cc4)nn3)ccc2s1
3. FC(F)c1nnc(-c2ccc(Cn3nnc(Cc4ccccn4)n3)cc2)o1

Data returned:
[277, 51, 298]

###

# measurement-notes: Stability to Phase I metabolism in human S9 liver fraction
# recorded-conditions: after 90 minutes, 37° C.
For each entry below, report its residual percentage in HUMAN S9 FRACTION value.

// known answers, use as guide
molecule	observation-type	meas-value
Nc1ccc(-c2cn(Cc3ccc(-c4nnc(C(F)F)o4)c(F)c3F)nn2)cn1	residual percentage in HUMAN S9 FRACTION	99%
C[C@H](c1ccc(-c2nnc(C(F)F)o2)cc1)n1cc(-c2ccc(N)nc2)nn1	residual percentage in HUMAN S9 FRACTION	78%
NC(=O)c1cccc(-c2nnn(Cc3ccc(-c4nnc(C(F)F)o4)c(F)c3)n2)c1	residual percentage in HUMAN S9 FRACTION	96%
CNc1ccc2cc(-c3cn(Cc4ccc(-c5nnc(C(F)F)o5)cn4)nn3)ccc2n1	residual percentage in HUMAN S9 FRACTION	89%

For each of the molecules below, note its residual percentage in HUMAN S9 FRACTION.
1. Nc1cncc(-c2nnn(Cc3ccc(-c4nnc(C(F)F)o4)cc3)n2)c1
2. O=C(Nc1cccc(-c2cn(Cc3ccc(-c4nnc(C(F)F)o4)c(F)c3)nn2)c1)N1CCOCC1
3. O=C(Nc1cccc(-c2cn(Cc3c(F)cc(-c4nnc(C(F)F)o4)cc3F)nn2)c1)N1CCOCC1
4. O=C1NCc2ccc(-c3cn(Cc4ccc(-c5nnc(C(F)F)o5)cc4)nn3)cc21
5. CC(c1ccc(-c2nnc(C(F)F)o2)cn1)n1cc(-c2ccc(N)nc2)nn1 (centres unmarked)
6. O=C1Nc2ccc(-c3cn(Cc4ccc(-c5nnc(C(F)F)o5)cn4)nn3)cc2C12CCNC2 (single isomer, unassigned) [compound 274]

Data returned:
["83%", "86%", "94%", "82%", "98%", "95%"]

For each of the molecules below, note its residual percentage in HUMAN S9 FRACTION.
1. NC(=O)c1ccc(-c2nnn(Cc3ccc(-c4nnc(C(F)F)o4)cc3)n2)cc1
2. FC(F)c1nnc(-c2ccc(Cn3cc(-c4ccc(NC5=NCCN5)cc4)nn3)cc2)o1
3. CCCCC(c1ccc(-c2nnc(C(F)F)o2)cc1)n1cc(-c2ccc(N)nc2)nn1 (centres unmarked)
4. Nc1ccc(-c2cn(Cc3ccc(-c4nnc(C(F)F)o4)c(F)c3)nn2)cn1
5. O=C1Nc2cc(-c3cn(Cc4ccc(-c5nnc(C(F)F)o5)cn4)nn3)ccc2NC12CCNCC2
6. CN1CCN(C(=O)Nc2cccc(-c3cn(Cc4ccc(-c5nnc(C(F)F)o5)cn4)nn3)c2)CC1
7. FC(F)c1nnc(-c2ccc(Cn3cc(-c4ccc(NC5=NCCN5)cc4)cn3)nc2)o1

Data returned:
92%
95%
92%
91%
94%
90%
93%

###

For each entry below, report its pIC50 value.
# system-tested: recombinant human HDAC1 (Homo sapiens (Human), UniProt Q13547)
# measurement-notes: Enzymatic screening, HDAC1 inhibition (fluorogenic FdL_G substrate)
pIC50: −log10 of the molar value.

compound-structure	system-tested	pIC50
O=C(Nc1cccc(-c2nnn(Cc3ccc(-c4nnc(C(F)F)o4)cc3)n2)c1)N1CCOCC1	recombinant human HDAC1 (Homo sapiens (Human), UniProt Q13547)	< 3.70
Nc1nc2ccc(-n3cc(Cc4ccc(-c5nnc(C(F)F)o5)cc4)nn3)cc2s1	recombinant human HDAC1 (Homo sapiens (Human), UniProt Q13547)	< 3.00
O=C(Nc1cccc(-c2cn(Cc3ccc(-c4nnc(C(F)F)o4)cc3)cn2)c1)N1CCOCC1	recombinant human HDAC1 (Homo sapiens (Human), UniProt Q13547)	< 3.70
FC(F)c1nnc(-c2ccc(Cn3cc(-c4ccc5[nH]c(N6CCOCC6)nc5c4)nn3)cc2)o1	recombinant human HDAC1 (Homo sapiens (Human), UniProt Q13547)	< 3.70

Let us move to another entry and its pIC50.
The recorded pIC50 for CN1CCN(c2ccc(-c3nnn(Cc4ccc(-c5nnc(C(F)F)o5)cc4)n3)cc2)CC1 is < 3.70
